Molecular target: farnesyl protein transferase (UniProt Q02293+Q04631)
Experiment: FPT IC50 (inhibition of farnesyl protein transferase, in vitro enzyme assay)
Settings: in vitro enzyme assay per WO 95/10516
Procedure: FPT IC50 (inhibition of farnesyl protein transferase, in vitro enzyme assay) and COS Cell IC50 (Cell-Based Assay) were determined following the assay procedures described in WO 95/10516, published Apr. 20. 1995. GGFT IC50 (inhibition of geranylgeranyl protein transferase, in vitro enzyme assay), Cell Mat Assay, and anti-tumor activity (in vivo anti-tumor studies) could be determined by the assay procedures described in WO 95/10516. […]
pIC50: −log10 of the molar value.
Where pIC50 equals or exceeds 8, the correct label is TRUE; where it does not, the label is FALSE.

Example entries and their recorded answers appear below.
O=C1CCC(CC(=O)N2CCC([C@H]3c4ncc(Br)cc4CCc4cc(Cl)cc(Br)c43)CC2)CC1 = TRUE
NC(=O)NC1CCCC(C(=O)N2CCC(C3c4ncc(Br)cc4CCc4cc(Cl)cc(Br)c43)CC2)C1 (stereo not shown) = FALSE
CCOC(=O)C(=O)NC1CCCC(C(=O)N2CCC(C3c4ncc(Br)cc4CCc4cc(Cl)cc(Br)c43)CC2)C1 (stereo not shown) = FALSE

API: the following record is the query input.
Reported pIC50 reaches at least 8 for CS(=O)(=O)NC1CCC(C(=O)N2CCC(C3c4ncc(Br)cc4CCc4cc(Cl)cc(Br)c43)CC2)CC1 (stereo not shown) ? TRUE
